- TESTED ON: M-phase inducer phosphatase 2 (Homo sapiens)
- MEASUREMENT DESCRIPTION: Cdc25B catalytic domain inhibitors, dose response, biochemical, 25 mM DTT, catalase, probe assessment (AID 669)
Recorded IC50, one value per entry.

[
  {
    "COMPOUND": "[O-]/[N+](=C\\c1ccncc1)c1ccccc1",
    "VAL": "> 50 µM"
  }
]

Query for M-phase inducer phosphatase 2 (Homo sapiens): what IC50 does the record show for CCOc1ccc2noc3c2c1C(=O)c1ccccc1-3 [MLS000106837] ?
> 50 µM

Query for M-phase inducer phosphatase 2 (Homo sapiens): what IC50 does the record show for Nc1cccc2cnccc12 [isoquinolin-5-amine] ?
> 50 µM

Query for M-phase inducer phosphatase 2 (Homo sapiens): what IC50 does the record show for Cc1ccc2c(c1)C1C=CCC1C(C(=O)O)N2 (stereo not drawn) [MLS-0067149.0001] ?
12.1 µM

* * *

Recorded IC50, one value per entry.
- TESTED ON: M-phase inducer phosphatase 2 (Homo sapiens)
- MEASUREMENT DESCRIPTION: Cdc25B catalytic domain inhibitors, dose response, biochemical, 25 mM DTT, catalase, probe assessment (AID 669)

Could you tell me which IC50 is on file for O=C1Cc2ccccc2C(=O)N1CCc1ccccc1 ?
> 50 µM

Could you tell me which IC50 is on file for COc1ccc2noc3c2c1C(=O)c1ccccc1-3 ?
> 50 µM

Could you tell me which IC50 is on file for CC(=O)Nc1cc(OC(C)=O)c2nonc2c1OC(C)=O ?
> 50 µM

Could you tell me which IC50 is on file for CCn1nc(-c2ccccc2)nc2c(=O)n(C)c(=O)nc1-2 ?
> 50 µM

Could you tell me which IC50 is on file for Oc1nc(Nc2ccccc2)cc2ccccc12 ?
> 50 µM

Could you tell me which IC50 is on file for O=C(OC1CCCCC1)c1ccc2c(c1)C1C=CCC1C(C(=O)O)N2 (centres undefined) ?
8.69 µM

* * *

- TESTED ON: M-phase inducer phosphatase 2 (Homo sapiens, UniProt P30305)
- Sequence (P30305 whole entry): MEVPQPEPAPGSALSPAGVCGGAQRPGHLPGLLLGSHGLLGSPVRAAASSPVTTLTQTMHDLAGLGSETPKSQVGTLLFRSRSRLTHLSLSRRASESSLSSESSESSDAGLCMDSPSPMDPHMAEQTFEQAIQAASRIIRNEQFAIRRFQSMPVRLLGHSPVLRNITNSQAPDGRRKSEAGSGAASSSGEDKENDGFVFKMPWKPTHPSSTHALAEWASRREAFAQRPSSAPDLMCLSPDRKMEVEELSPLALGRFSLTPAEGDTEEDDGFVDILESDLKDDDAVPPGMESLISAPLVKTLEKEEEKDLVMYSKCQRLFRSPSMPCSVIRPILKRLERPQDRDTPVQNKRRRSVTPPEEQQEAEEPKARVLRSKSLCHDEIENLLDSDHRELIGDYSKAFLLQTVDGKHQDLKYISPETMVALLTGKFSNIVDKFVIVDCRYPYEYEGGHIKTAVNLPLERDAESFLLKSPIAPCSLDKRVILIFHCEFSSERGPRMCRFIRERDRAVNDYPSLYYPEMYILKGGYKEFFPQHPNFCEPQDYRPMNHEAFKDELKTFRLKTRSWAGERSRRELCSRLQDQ
- MEASUREMENT DESCRIPTION: Cdc25B catalytic domain inhibitors, dose response, biochemical, 25 mM DTT, catalase, probe assessment (AID 669)
Recorded IC50, one value per entry.

[
  {
    "MOLECULE": "COc1ccc(Br)cc1C=c1sc2nc(-c3ccco3)nn2c1=O",
    "TESTED ON": "M-phase inducer phosphatase 2 (Homo sapiens, UniProt P30305)",
    "IC50": "16.8 µM"
  }
]

Could you tell me which IC50 is on file for CCn1nc(-c2cccs2)nc2c(=O)n(C)c(=O)nc1-2 ?
> 50 µM

Could you tell me which IC50 is on file for N#Cc1c(N)sc(=S)c2c1CCN(Cc1ccccc1)C2 ?
> 50 µM

Could you tell me which IC50 is on file for O=C1C=Cc2ccccc2C1=O [1,2-dihydronaphthalene-1,2-dione] ?
> 50 µM

Could you tell me which IC50 is on file for O=C(Nc1ccc2nc(-c3ccco3)c(-c3ccco3)nc2c1)N1CCCCCC1 ?
40.9 µM
